Molecular target: CD3E (human, UniProt P07766 23-207)
Sequence (P07766 23-207): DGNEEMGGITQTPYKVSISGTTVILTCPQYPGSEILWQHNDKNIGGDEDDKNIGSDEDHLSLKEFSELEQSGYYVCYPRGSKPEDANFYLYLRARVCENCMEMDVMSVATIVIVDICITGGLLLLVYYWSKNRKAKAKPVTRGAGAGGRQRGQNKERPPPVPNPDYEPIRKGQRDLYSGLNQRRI
Assay: cell-based or functional assay
The label class 1 is reserved for CD3E-positive proportion [%] (Avg, n = 2), CD3-stably expressing 293T cells strictly under 50%; class 0 covers values equal to or above it.

Consider modified TCR ba5 (TCR) TCR alpha: NIQNPDPAVYQLRDSKSSDKSVCLFTDFDSQTNVSQSKDSDVYITDKTVLDMRSMDFKSNSAVAWSNKSDFACANAFNNSIIPEDTFFPSPESSCDVKLVEKSFETDTNLNFQNLSVIGFRILLLKVAGFNLLMTLRLWSS TCR beta: FRCQVQFYGLSENDEWTQDRAKPVTQIVSAEAWGRADCGFTSESYQQGVLSATILYEILLGKATLYAVLVSALVLMAMVKRKDSRG . Does its CD3E-positive proportion [%] (Avg, n = 2), CD3-stably expressing 293T cells lie strictly below 50%?
class 1

Would you mind doing modified TCR ba2 (TCR) TCR alpha: NIQNPDPAVYQLRDSKSSDKSVCLFTDFDSQTNVSQSKDSDVYITDKTVLDMRSMDFKSNSAVAWSNKSDFACANAFNNSIIPEDTFFPSPESSCDVKLVEKSFETDTNLNFQNLSVIGFRILLLKVAGFNLLMTLRLWSS TCR beta: EDLKNVFPPEVAVFEPSEAEISHTQKATLVCLATGFYPDHVELSWWVNGKEVHSGVSTDPQPLKEQPALNDSRYCLSSRLRVSATFWQNPRNHFRCQVQFYGLSENDEWTQDRAKPVTQIVSAEAWGRADCGFTSESYQQGVLSATILYEILLGKATLYAVLVSALVLMAMVKRKDSRG as well?
class 0

Would you mind doing modified TCR ba3 (TCR) TCR alpha: NIQNPDPAVYQLRDSKSSDKSVCLFTDFDSQTNVSQSKDSDVYITDKTVLDMRSMDFKSNSAVAWSNKSDFACANAFNNSIIPEDTFFPSPESSCDVKLVEKSFETDTNLNFQNLSVIGFRILLLKVAGFNLLMTLRLWSS TCR beta: ATLVCLATGFYPDHVELSWWVNGKEVHSGVSTDPQPLKEQPALNDSRYCLSSRLRVSATFWQNPRNHFRCQVQFYGLSENDEWTQDRAKPVTQIVSAEAWGRADCGFTSESYQQGVLSATILYEILLGKATLYAVLVSALVLMAMVKRKDSRG as well?
class 0

Would you mind doing modified TCR ba18 (TCR) TCR alpha: IPEDTFFPSPESSCDVKLVEKSFETDTNLNFQNLSVIGFRILLLKVAGFNLLMTLRLWSS TCR beta: AKPVTQIVSAEAWGRADCGFTSESYQQGVLSATILYEILLGKATLYAVLVSALVLMAMVKRKDSRG as well?
class 0

Would you mind doing modified TCR ba13 (TCR) TCR alpha: KSNSAVAWSNKSDFACANAFNNSIIPEDTFFPSPESSCDVKLVEKSFETDTNLNFQNLSVIGFRILLLKVAGFNLLMTLRLWSS TCR beta: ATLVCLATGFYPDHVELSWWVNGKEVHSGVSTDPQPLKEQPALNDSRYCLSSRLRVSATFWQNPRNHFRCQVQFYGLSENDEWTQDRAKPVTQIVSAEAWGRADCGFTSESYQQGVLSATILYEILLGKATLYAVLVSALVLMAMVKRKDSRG as well?
class 1
